Hello, the source for this data is patent US11498930B2, in case you need it.

# key: entry, value: pIC50
tested on: MOLM-13 cells; test: MOLM-13 cell proliferation experiment; assay type: cell-based; details: Homo sapiens, MOLM-13, 72 h, MOLM-13 cell proliferation, 3 days, Tables 3.1 and 3.2; read-out: IC50
pIC50: −log10 of the molar value.

stdin: Recorded pIC50 for `Cn1ccc2c(Sc3cnc(N4CCC5(CCC[C@H]5N)CC4)n4ccnc34)ccnc21` with MOLM-13 cells, please?
stdout: 6.00 to 7.00

stdin: Next entry: `CC1(CN)CCN(c2ncc(Sc3cccc(Cl)c3Cl)c3nccn23)CC1`
stdout: 6.00 to 7.00

stdin: Moving on to `N[C@@H]1COCC12CCN(c1ncc(Sc3ccnc(Cl)c3Cl)c3nccn13)CC2`
stdout: 6.00 to 7.00

stdin: What about this compound? `Cc1nccc(Sc2cnc(N3CCC4(CC3)CO[C@@H](C)[C@H]4N)n3ccnc23)c1Cl`
stdout: > 7.00

stdin: Also need `CC1(N)CCN(c2ncc(Sc3cccc(Cl)c3Cl)c3nccn23)CC1` , thanks.
stdout: 6.00 to 7.00

* * *

target: SHP2^E76A protein (Homo sapiens (Human), UniProt Q06124, E76A); assay: SHP2 enzyme activity inhibition experiment; format: biochemical; details: SHP2 enzyme activity, Tables 1.1 and 1.2; read-out: IC50
Sequence (Q06124 whole entry E76A): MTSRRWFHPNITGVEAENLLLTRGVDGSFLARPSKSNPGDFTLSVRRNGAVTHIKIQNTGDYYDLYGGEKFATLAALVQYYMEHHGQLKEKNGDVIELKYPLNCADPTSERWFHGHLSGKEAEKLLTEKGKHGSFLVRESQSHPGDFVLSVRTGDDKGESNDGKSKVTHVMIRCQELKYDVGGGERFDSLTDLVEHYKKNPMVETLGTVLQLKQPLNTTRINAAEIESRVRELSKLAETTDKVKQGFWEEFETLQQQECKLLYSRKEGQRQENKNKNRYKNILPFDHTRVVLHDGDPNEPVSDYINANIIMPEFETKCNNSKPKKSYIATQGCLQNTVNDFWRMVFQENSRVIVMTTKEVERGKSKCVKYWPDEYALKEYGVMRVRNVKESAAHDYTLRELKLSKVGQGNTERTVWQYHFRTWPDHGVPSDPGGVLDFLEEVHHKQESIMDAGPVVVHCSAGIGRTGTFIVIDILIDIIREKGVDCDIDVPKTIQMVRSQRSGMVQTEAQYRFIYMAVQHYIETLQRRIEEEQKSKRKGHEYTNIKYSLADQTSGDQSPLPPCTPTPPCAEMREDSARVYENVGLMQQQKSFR
pIC50: −log10 of the molar value.
outcome-measure: pIC50

Example entries and their recorded answers appear below.
N[C@@H]1CCCCC12CCN(c1ncc(Sc3cccc(Cl)c3Cl)c3nncn13)CC2 ... 6.00 to 7.00
CC(=O)Nc1ccc(Sc2cnc(N3CCC4(CCC[C@H]4N)CC3)n3cnnc23)cc1 ... 5.00 to 6.00
COc1ccccc1Sc1cnc(N2CCC3(CCC[C@H]3N)CC2)n2cnnc12 ... 6.00 to 7.00

Okay, now this compound:
stdin: Form field: reported pIC50 of `N[C@H]1CCC12CCN(c1ncc(Sc3cccc(Cl)c3Cl)c3nncn13)CC2`
stdout: 5.00 to 6.00

* * *

molecular target: SHP2^E76A protein (Homo sapiens (Human), UniProt Q06124, E76A); assay: SHP2 enzyme activity inhibition experiment; assay type: biochemical; settings: Table 4; read-out: SHP2 enzyme activity IC50
Entries annotated with measured log10 of IC50
// do not treat as linear: log10 of IC50, unit nM

Recorded results for 8 molecules are shown here.
CC1C[C@@H](N)C2(CCN(c3ncc(Sc4cc(N)nc(Cl)c4Cl)c4nncn34)CC2)C1 (stereo partly drawn) ... 0.30
Cc1nccc(Sc2cnc(N3CCC4(CCC[C@H]4N)CC3)n3ccnc23)c1Cl ... 1.60
C[C@@H]1OCC2(CCN(c3ncc(Sc4cc(N)ncc4Cl)c4nccn34)CC2)[C@@H]1N ... 1.32
N[C@@H]1CCCC12CCN(c1ncc(Sc3ccnc(Cl)c3Cl)c3nccn13)CC2 ... 1.76
Cc1nccc(Sc2cnc(N3CCC4(CC3)CO[C@@H](C)[C@H]4N)n3ccnc23)c1Cl ... 1.18
C[C@@H]1OCC2(CCN(c3ncc(Sc4cc(N)nc(Cl)c4Cl)c4nccn34)CC2)[C@@H]1N ... 1.00
N[C@@H]1CCCC12CCN(c1ncc(Sc3cccc4ccccc34)c3nccn13)CC2 ... 1.45
N[C@@H]1CCCC12CCN(c1ncc(Sc3ccccc3Cl)c3nncn13)CC2 ... 2.15

stdin: I have this molecule here, CC1C[C@@H](N)C2(CCN(c3ncc(Sc4ccnc(Cl)c4Cl)c4nccn34)CC2)C1 (stereo partly drawn) , and I need its recorded log10 of IC50.
stdout: 0.90

stdin: Please answer likewise for `Cc1nc(N)cc(Sc2cnc(N3CCC4(CC3)CC(F)(F)C[C@H]4N)n3ccnc23)c1Cl`
stdout: 1.41

stdin: Request: `Cc1nccc(Sc2cnc(N3CCC4(CCC[C@H]4N)CC3)n3cnnc23)c1Cl`
stdout: 1.43

stdin: Repeat for the following molecule: `Nc1cc(Sc2cnc(N3CCC4(CCC[C@H]4N)CC3)n3cnnc23)c(Cl)c(Cl)n1`
stdout: 1.30
